measurement.target: FPRL1 (Homo sapiens, UniProt P25090)
Sequence (P25090 1-351): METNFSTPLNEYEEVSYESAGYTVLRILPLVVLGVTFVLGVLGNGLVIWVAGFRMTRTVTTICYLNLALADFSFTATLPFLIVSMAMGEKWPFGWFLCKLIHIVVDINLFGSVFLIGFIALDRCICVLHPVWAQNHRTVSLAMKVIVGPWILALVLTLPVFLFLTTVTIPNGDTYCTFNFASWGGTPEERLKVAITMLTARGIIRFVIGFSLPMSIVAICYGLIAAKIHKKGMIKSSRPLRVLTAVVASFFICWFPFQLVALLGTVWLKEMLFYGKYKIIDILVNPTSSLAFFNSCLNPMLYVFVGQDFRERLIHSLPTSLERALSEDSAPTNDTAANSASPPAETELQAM
assay.procedure: Receptor signaling (calcium mobilization) in L1.2-FPRL1 cells
Format: cell-based
Design: expressed in transfected cells
experimental.context: SHAAGtide and truncated/other variants
Where no end group is shown, it is not given here.
measured.metric: Designation and FPRL1 Activity

Answered examples (6):
* WRRKIGPQMTLSHAAG [CCXP7] | Low activity
* MLWRRKIGPQM [CCXP8] | Moderate
* WRRKIG [CCXP10] | Low activity
* MLWRRKIGPQMTLSH [CCXP3] | High activity
* LWRRKIGPQMTLSH [CCXP11] | Moderate
* RRKIGPQMTLSHAAG [CCXP2] | Low activity

Look up Designation and FPRL1 Activity for this substance: WRRKIGPQM [CCXP9]
Low activity

Next up: MLWRRKIGPQMTLSHAAY [CCXP6]
High activity

Try MLWRRKIGPQMT [CCXP5] next.
Moderate

And for IGPQMTLSHAAG [CCXP4] ?
Low activity
